The reported numbers originate from ChEMBL document CHEMBL1914392.

Organism: Gallus gallus
Test: Binding affinity to hen egg white lysozyme assessed as effective quenching constant at 298 K by Lineweaver-Burk plot analysis
// reported Kq for each item listed

[
  {
    "MOLECULE": "O=C(O)[C@H]1O[C@@H](Oc2cc3oc(-c4ccc(O)cc4)cc(=O)c3c(O)c2O)[C@H](O)[C@@H](O)[C@@H]1O [SCUTELLARIN]",
    "Kq": "1.25 ×10⁵ L/mol"
  },
  {
    "MOLECULE": "O=c1cc(-c2ccccc2)oc2cc(O)c(O)c(O)c12 [BAICALEIN]",
    "Kq": "1.77 ×10⁵ L/mol"
  },
  {
    "MOLECULE": "CC(C)(CO)[C@@H](O)C(=O)NCCC(=O)O",
    "Kq": "1.28 ×10⁵ L/mol"
  },
  {
    "MOLECULE": "O=C(O)[C@H]1O[C@@H](Oc2cc3oc(-c4ccccc4)cc(=O)c3c(O)c2O)[C@H](O)[C@@H](O)[C@@H]1O [BAICALIN]",
    "Kq": "1.74 ×10⁵ L/mol"
  }
]
